biological target: SARS-CoV-2 Mac1 (Severe acute respiratory syndrome coronavirus 2, UniProt P0DTD1); assay: biochemical; conditions: read-out: %inhibition
Counter-ions that a name gives are not always drawn.
Quick reference: inhibition at 100 µM of the listed items.
Return type: number; implicit unit %.

CC(=O)Nc1ccccc1 [Acetanilide]	30.4
COc1ccccc1OCC(O)COC(N)=O (centres unmarked)	36.3
CC(=O)O[C@]1(C(C)=O)CC[C@H]2[C@@H]3C=C(Cl)C4=CC(=O)[C@@H]5C[C@@H]5[C@]4(C)[C@H]3CC[C@@]21C [Cyproterone Acetate]	0

## Input State its inhibition at 100 µM on SARS-CoV-2 Mac1 (Severe acute respiratory syndrome coronavirus 2, UniProt P0DTD1): CCCCc1nc2cc(/C=C/C(=O)NO)ccc2n1CCN(CC)CC [Pracinostat (SB939)]
## Output 3.38

## Input Could you share what inhibition at 100 µM was measured for C[C@H]1[C@@H](O)O[C@@H]2O[C@@]3(C)CC[C@H]4[C@H](C)CC[C@@H]1[C@@]24OO3 [Dihydroartemisinin (DHA)] , tested on SARS-CoV-2 Mac1 (Severe acute respiratory syndrome coronavirus 2, UniProt P0DTD1)?
## Output 0

## Input Enter reported inhibition at 100 µM observed with SARS-CoV-2 Mac1 (Severe acute respiratory syndrome coronavirus 2, UniProt P0DTD1) for CN(C)CC/C=C1/c2ccccc2COc2ccc(CC(=O)O)cc21 [Olopatadine HCl]
## Output 2.14

## Input Tell me reported inhibition at 100 µM for COc1cccc2c1C(=O)c1c(O)c3c(c(O)c1C2=O)CC(O)(C(=O)CO)CC3OC1CC(N)C(O)C(C)O1 (centres unmarked) [Doxorubicin (Adriamycin) HCl] , tested with SARS-CoV-2 Mac1 (Severe acute respiratory syndrome coronavirus 2, UniProt P0DTD1).
## Output 18.3

## Input Quick check: inhibition at 100 µM on SARS-CoV-2 Mac1 (Severe acute respiratory syndrome coronavirus 2, UniProt P0DTD1), item CC(C)NCC(O)c1ccc(NS(C)(=O)=O)cc1 (centres unmarked) [Sotalol HCl] ?
## Output 0

----------
biological target: SARS-CoV-2 Mac1 (Severe acute respiratory syndrome coronavirus 2, UniProt P0DTD1); assay: biochemical; conditions: 100 µM; inhibitor
Measured %inhibition values are reported for all entries that follow.
The answer is to be given in %; state only the numeric part.

Recorded results for 4 compounds are shown here.
Nc1ccncc1	5.817
COc1ccnc(C[S+]([O-])c2nc3cc(OC(F)F)ccc3[nH]2)c1OC (centres unmarked) [Pantoprazole sodium]	0
COc1ccccc1N1CCN(CC(O)COc2cccc3ccccc23)CC1 (centres unmarked) [Naftopidil DiHCl]	0
COCCCOc1ccnc(C[S+]([O-])c2nc3ccccc3[nH]2)c1C (centres unmarked) [Rebeprazole sodium]	0

Here is the next item to consider.
## Input # get_value(readout='%inhibition', item= CC(C)N(CCC(C(N)=O)(c1ccccc1)c1ccccn1)C(C)C (centres unmarked) [Disopyramide Phosphate] )
## Output 0

----------
target: SARS-CoV-2 Mac1 (Severe acute respiratory syndrome coronavirus 2); experiment: biochemical; conditions: read-out: %inhibition
Counter-ions that a name gives are not always drawn.
Readings of inhibition at 100 µM for the listed compounds
// note: answer is a bare numeric in %

CCOC(=O)CCC(=O)O[C@H]1[C@H](O[C@@H]2[C@@H](C)[C@H](O[C@H]3C[C@@](C)(OC)[C@@H](O)[C@H](C)O3)[C@@H](C)C(=O)O[C@H](CC)[C@@](C)(O)[C@H](O)[C@@H](C)C(=O)[C@H](C)C[C@@]2(C)O)O[C@H](C)C[C@@H]1N(C)C [Erythromycin Ethylsuccinate]	0
CCCCC[C@H](O)/C=C/[C@@H]1[C@@H](C/C=C\CCCC(=O)O)[C@@H](O)C[C@H]1O	32.6
Cc1ccc2c(c1)[C@]13CCCC[C@@H]1[C@H](C2)N(C)CC3 [Dimemorfan phosphate]	0

## Input What inhibition at 100 µM value was documented for this compound, Nc1nc2[nH]cc(CCc3ccc(C(=O)N[C@@H](CCC(=O)O)C(=O)O)cc3)c2c(=O)[nH]1 [Pemetrexed Disodium Hydrate] ?
## Output 6.24

## Input If you can, please state the reported inhibition at 100 µM value of Cc1cc(-n2c(=O)[nH]c(=O)n(C)c2=O)ccc1Oc1ccc(SC(F)(F)F)cc1 .
## Output 0

## Input What does the data say about its inhibition at 100 µM? Entry: Cc1ccc(Cl)c(Nc2ccccc2C(=O)O)c1Cl [Meclofenamate Sodium]
## Output 5.23

## Input Field request: inhibition at 100 µM | item: NC(=O)N1CCC(CC(=O)N2CCC([C@H]3c4ncc(Br)cc4CCc4cc(Cl)cc(Br)c43)CC2)CC1
## Output 29.6

## Input Look up inhibition at 100 µM: C/C(O)=C(\C#N)C(=O)Nc1ccc(C(F)(F)F)cc1 [Teriflunomide]
## Output 12.5

## Input Bench note: what inhibition at 100 µM did O=C(O)c1cccnc1Nc1cccc(C(F)(F)F)c1 show?
## Output 11

## Input Tell me the measured inhibition at 100 µM of CN(C)CCN(Cc1ccccc1)c1ccccn1 [Tripelennamine HCl] , please.
## Output 0

## Input // query inhibition at 100 µM value for entry CCC(=O)O[C@@H]1CC(=O)O[C@H](C)C/C=C/C=C/[C@H](O)[C@H](C)C[C@H](CC=O)[C@H](O[C@@H]2O[C@H](C)[C@@H](O[C@H]3C[C@@](C)(O)[C@@H](OC(=O)CC)[C@H](C)O3)[C@H](N(C)C)[C@H]2O)[C@H]1OC
## Output 5.18

## Input Quick check: inhibition at 100 µM of CC(C)OC(=O)[C@H](C)N[P@](=O)(OC[C@H]1O[C@@H](n2ccc(=O)[nH]c2=O)[C@](C)(F)[C@@H]1O)Oc1ccccc1 ?
## Output 42.9

## Input Requested field: inhibition at 100 µM. Item: CN(C)CCc1c[nH]c2ccc(C[C@H]3COC(=O)N3)cc12
## Output 0

## Input Which inhibition at 100 µM value belongs to Cc1cccc(N(C)C(=S)Oc2ccc3ccccc3c2)c1 [Tolnaftate] ?
## Output 0

Reference source for all entries: paper doi:10.1101/2021.10.07.463234v2
